Ref: patent US20240360228A1

- ASSAYED_TARGET: T1, human chemokine (C-C motif) receptor 8 (CCR8) (human, UniProt P51685 1-355)
- T1 construct: On human peripheral blood lymphocytes / PBMC (native) or on human CCR8 GFP-transfected Ba/F3 cells; also called hCCR8; human CCR8
- T1 sequence (P51685 whole entry): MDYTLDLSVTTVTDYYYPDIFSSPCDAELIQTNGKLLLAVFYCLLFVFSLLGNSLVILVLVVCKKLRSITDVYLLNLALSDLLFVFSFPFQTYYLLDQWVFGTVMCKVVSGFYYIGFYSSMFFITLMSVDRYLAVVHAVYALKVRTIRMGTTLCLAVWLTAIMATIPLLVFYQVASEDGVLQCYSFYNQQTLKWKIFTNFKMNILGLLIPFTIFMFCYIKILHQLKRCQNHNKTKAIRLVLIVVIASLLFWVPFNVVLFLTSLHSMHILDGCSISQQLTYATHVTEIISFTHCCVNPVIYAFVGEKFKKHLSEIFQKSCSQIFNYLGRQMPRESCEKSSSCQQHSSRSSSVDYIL
- RUN_DESCRIPTION: flow cytometry blocking, PBMC CCR8+ CD4+ cells; competitor PE-AB13 (its MFI is read)
MEASUREMENT_TYPE: MFI
Reply briefly: the number, and no unit.

Consider the following illustrative entries.
BINDER	MEASUREMENT_TYPE	OBSERVED_VALUE
AB10 (antibody, V domains shown, Hybridoma monoclonal; also called antibody 10; clone 10) VH: EVQLVETGGGLVQPKGSLKLSCAVSGFTFKTNAMNWVRQAPGKGLEWVARIRSKSNKYATYYADSVKDRFTISRDDSQSMLYLQMNNLKTEDTAMYYCVRGSEMGYYYAMDYWGQGTSVTVSS VL: DIVMTQAAPSVPVTPGESVSISCRSSKSLLHSNGNTYLYWFLQRPGQSPQLLIYRMSNLASGVPDRFSGSGSGTAFTLRISRVEAEDVGVYYCMQHLEYPFTFGGGTKLEIK	MFI	916
AB4 (antibody, V domains shown, Hybridoma monoclonal; also called antibody 4; clone 4) VH: QVQLKESGPGLVKPSETLSLTCTVSGFSLTGYHVSWVRQPPGKGLEWMGVIWGDGRTTYNSALKSRLSISRDTSKSQVFLKMSSLKTEDTATYYCARGGDSGFAYWGQGTLVTVSS VL: DIQMTQSPASLSASLEEIVTITCQASQDIGNWLSWYQQKPGKSPQLLIYGATSLADGVPSRFSGSRSGTQFSLKISRLQVEDIGIYYCLQAYIVPLTFGSGTKLESK	MFI	971

Turning now to a further record.
Req: Could you tell me which MFI is on file for AB12 (antibody, V domains shown, Hybridoma monoclonal; also called antibody 12; clone 12) VH: EVQLVESGGGLVQPKGSLKLSCAASGFAFNTYAMNWVRQAPGKGLEWIARLRSKSNFYATYYADSVKDRFTISRDDSQSMLYLQMNNLKTEDTAVYYCVRGRELGPSYAMDYWGQGTSVTVSS VL: DIVMTQAAPSVPVTPGESVSISCRSSKSLLHSNGNTYLYWFLQRPGQSPQLLIYRMSNLASGVPDRFSGSGSGTAFTLRISRVEAEDVGVYYCMQHLEYPYTFGGGTKLEIK ?
Resp: 803
